- System: CCRF-CEM
- PROTOCOL NOTES: Binding was measured using [3H]thymopentin was compared to the CEM cell binding assay.
- Assay type: functional, Homo sapiens
- Parameters: unit not given here
REPORTED ENDPOINT: Binding
The answer should be a number; do not append a unit.

Enquiry: Record `CC(C)[C@H](NC(=O)[C@H](CC(=O)O)NC(=O)[C@H](C)NC(=O)[C@@H](N)CCCN=C(N)N)C(=O)C[C@H](Cc1ccccc1)C(=O)O` : what is its Binding with CCRF-CEM?
Return: 1780

Enquiry: Record CCCC[C@H](NC(=O)[C@@H](N)CCCN=C(N)N)C(=O)N[C@@H](CC(=O)O)C(=O)N[C@@H](C(C)C)C(O)C[C@H](Cc1ccccc1)C(=O)O (stereo partly drawn) : what is its Binding with CCRF-CEM?
Return: 2400

Enquiry: Record `CCCC[C@@H](C(=O)N[C@@H](CC(=O)O)C(=O)N[C@H](C(=O)C[C@H](C(=O)O)C(C)C)C(C)C)N(C)C(=O)[C@@H](N)CCCN=C(N)N` : what is its Binding with CCRF-CEM?
Return: 2356
